biological target: Mmp7 (rat); assay: reporter assay of Huesken 2005; details: siRNA; also: test concentration or dose not given here
Oligonucleotides are given in HELM: sugar(base)linkage, 5' to 3'; d 2'-deoxyribose, r ribose, m 2'-O-methylribose, p phosphate. ss, as = sense and antisense strand
propertyName: normalised inhibition (eCFP-eYFP dual reporter) (%)

{"columns": ["substance", "unitAbbrev", "valueMeasured"],
 "data": [
  ["RNA1{r(C)p.r(A)p.r(C)p.r(U)p.r(C)p.r(U)p.r(A)p.r(G)p.r(G)p.r(C)p.r(C)p.r(A)p.r(U)p.r(G)p.r(C)p.r(C)p.r(U)p.r(U)p.r(U)p.d(T)p.d(T)}|RNA2{r(A)p.r(A)p.r(A)p.r(G)p.r(G)p.r(C)p.r(A)p.r(U)p.r(G)p.r(G)p.r(C)p.r(C)p.r(U)p.r(A)p.r(G)p.r(A)p.r(G)p.r(U)p.r(G)p.d(T)p.d(T)}$$$RNA1{StrandType:ss}|RNA2{StrandType:as}$", "%", 101],
  ["RNA1{r(A)p.r(G)p.r(G)p.r(G)p.r(G)p.r(A)p.r(G)p.r(A)p.r(U)p.r(C)p.r(A)p.r(C)p.r(G)p.r(G)p.r(A)p.r(G)p.r(A)p.r(C)p.r(A)p.d(T)p.d(T)}|RNA2{r(U)p.r(G)p.r(U)p.r(C)p.r(U)p.r(C)p.r(C)p.r(G)p.r(U)p.r(G)p.r(A)p.r(U)p.r(C)p.r(U)p.r(C)p.r(C)p.r(C)p.r(C)p.r(U)p.d(T)p.d(G)}$$$RNA1{StrandType:ss}|RNA2{StrandType:as}$", "%", 102],
  ["RNA1{r(U)p.r(G)p.r(C)p.r(A)p.r(G)p.r(A)p.r(A)p.r(U)p.r(U)p.r(C)p.r(U)p.r(C)p.r(A)p.r(C)p.r(U)p.r(A)p.r(A)p.r(U)p.r(G)p.d(T)p.d(T)}|RNA2{r(C)p.r(A)p.r(U)p.r(U)p.r(A)p.r(G)p.r(U)p.r(G)p.r(A)p.r(G)p.r(A)p.r(A)p.r(U)p.r(U)p.r(C)p.r(U)p.r(G)p.r(C)p.r(A)p.d(A)p.d(C)}$$$RNA1{StrandType:ss}|RNA2{StrandType:as}$", "%", 72.9]
]}

====

target: MRFAP1; experiment: reporter assay of Huesken 2005; settings: siRNA
Oligonucleotides are written 5' to 3', each unit as a sugar letter and its base; * is a phosphorothioate linkage, no mark a phosphodiester; rarer units and linkages stand in square brackets, end groups in braces. Plain capitals give the bases only. d = 2'-deoxy (DNA); r = 2'-OH (RNA)
Listed here: items and their measured normalised inhibition (eCFP-eYFP dual reporter).
propertyName: normalised inhibition (eCFP-eYFP dual reporter) (%)

{"columns": ["substance", "valueMeasured"],
 "data": [
  ["sense rGrGrArArArArUrGrCrGrCrUrCrArCrArUrArCdTdT / antisense rGrUrArUrGrUrGrArGrCrGrCrArUrUrUrUrCrCdAdA", 86.7],
  ["sense rUrCrGrUrGrCrArGrArCrArArGrCrArArArGrCdTdT / antisense rGrCrUrUrUrGrCrUrUrGrUrCrUrGrCrArCrGrAdCdA", 67.6],
  ["sense rGrArGrGrUrCrUrUrGrUrUrCrGrUrCrUrGrUrAdTdT / antisense rUrArCrArGrArCrGrArArCrArArGrArCrCrUrCdAdT", 72.7]
]}
